The origin of these recorded values is patent US8129371B2.

molecular target: Human mTOR (FLAG-TOR) (Homo sapiens); construct: FLAG; experiment: Human mTOR kinase assay with purified enzyme, DELFIA format; type: biochemical; settings: purified human mTOR enzyme, DELFIA format
pIC50: −log10 of the molar value.
Please note: 1 (yes) applies when pIC50 is 9 or greater, and 0 (no) applies otherwise.

Observe how each entry below is paired with its result.
CN1CCN(c2ccc(NC(=O)Nc3ccc(-c4nc(N5CC6CCC(C5)O6)c5cnn(C6CCC(=O)CC6)c5n4)cc3)cc2)CC1 [Example 400] = 1 (yes)
O=C(Nc1ccc(-c2nc(N3CC4CCC(C3)O4)c3cnn([C@H]4CC[C@H](O)CC4)c3n2)cc1)NC1CC1 (relative stereo) [Example 403] = 1 (yes)
O=C(Nc1ccc(-c2nc(N3C[C@H]4C[C@@H]3CO4)c3cnn(CC(F)(F)F)c3n2)cc1)OCCO [Example 343] = 0 (no)
COC1CCC(n2ncc3c(N4CC5CCC(C4)O5)nc(-c4ccc(NC(=O)Nc5ccc(N6CCNCC6)cc5)cc4)nc32)CC1 (stereo not drawn) [Example 305] = 1 (yes)
O=C(Nc1ccc(-c2nc(N3CC4CCC(C3)O4)c3cnn([C@H]4CC[C@@H](O)CC4)c3n2)cc1)NC1CC1 (relative stereo) [Example 402] = 1 (yes)

Ask: I'd appreciate it if you could say whether COCC(COC)n1ncc2c(N3CC4CCC(C3)O4)nc(-c3ccc(NC(=O)Nc4ccccc4)cc3)nc21 [Example 324] has pIC50 at least equal to 9.
Result: 0 (no)

Ask: # bool: pIC50 of CN1CCN(Cc2cc3nc(-c4ccc(NC(=O)Nc5cccnc5)cc4)nc(N4CC5CCC(C4)O5)c3s2)CC1 [Example 426] >= 9
Result: 0 (no)

----------
Listing of entries alongside the reported IC50.
molecular target: PI3K (Homo sapiens); construct: PI3 Kinase α IC50; other: PI3 Kinase α; other: PI3 Kinase α isoform, fluorescence polarization; assay: Fluorescence polarization assay for PI3K; format: biochemical; conditions: PI3 Kinase α isoform, fluorescence polarization; read-out: PI3 Kinase α IC50
Give the number; nM is assumed, so skip it.

Observe how each entry below is paired with its result.
CO[C@H]1CC[C@H](n2ncc3c(N4CC5CCC(C4)O5)nc(-c4ccc(NC(=O)Nc5ccc(N6CCN(C)CC6)cc5)cc4)nc32)CC1 (relative stereo) = 145
COCC(COC)n1ncc2c(N3CC4CCC(C3)O4)nc(-c3ccc(NC(=O)Nc4ccc(C(=O)NN(C)C)cc4)cc3)nc21 = 666
O=C(Nc1ccc(-c2nc(N3CC4CCC(C3)O4)c3sccc3n2)cc1)NC1CC1 = 1360
CCNC(=O)Nc1ccc(-c2nc(N3CC4CCC(C3)O4)c3sccc3n2)cc1 = 1260
CNC(=O)Nc1ccc(-c2nc(N3CC4CCC(C3)O4)c3sc(CN4CCN(C)CC4)cc3n2)cc1 = 322

IC50 measured on c1cc2cc(-c3nc(N4CC5CCC(C4)O5)c4cnn(C5CCC6(CC5)OCCO6)c4n3)ccc2[nH]1 = 10500

----------
Biological target: PI3K (Homo sapiens)
Construct: PI3 Kinase α IC50; other: PI3 Kinase α; other: PI3 Kinase α isoform, fluorescence polarization
Experiment: Fluorescence polarization assay for PI3K
Format: biochemical
Details: PI3 Kinase α; read-out: PI3 Kinase α IC50
Description: This assay is used to determine the IC50 of compounds of the present invention as it identifies inhibitors of PI3 kinase by measuring inhibition. […] Stop/detector mix is prepared by mixing 4 μL Red detector and 1.6 μL or 2.0 μL GST-GRP with 1 mL Stop buffer, which results in 10 nM probe and 70 nM GST-GRP). […] The plates are read after 30-90 minutes keeping the red probe solutions dark. […] Plates are read on machines with filters for Tamra. […]
READOUT: pIC50
pIC50 (log units): -log10 of the concentration in mol/L.

CCn1ncc2c(N3CC4CCC(C3)O4)nc(-c3ccc(NC(=O)NCCO)cc3)nc21 = 6.38
CNC(=O)Nc1ccc(-c2nc(N3CC4CCC(C3)O4)c3cnn(C4CCN(C(=O)OC(C)(C)C)CC4)c3n2)cc1 = 5.83
O=C(Nc1ccncc1)Nc1ccc(-c2nc(N3CC4CCC(C3)O4)c3cnn(CCF)c3n2)cc1 = 6.99
CCn1ncc2c(N3CC4CCC(C3)O4)nc(-c3ccc(NC(=O)NCCN(C)C)cc3)nc21 = 6.08
CCNC(=O)Nc1ccc(-c2nc(N3CC4CCC(C3)O4)c3cnn(C)c3n2)cc1 = 6.10
CNC(=O)Nc1ccc(-c2nc(N3CC4CCC(C3)O4)c3cnn(C4CCC5(CC4)OCCCO5)c3n2)cc1 = 6.44

Recorded result, COC(=O)N1CCC(n2ncc3c(N4CC5CCC(C4)O5)nc(-c4ccc(NC(=O)OCCN5CCCC5)cc4)nc32)CC1 , pIC50: 5.57

The measured pIC50 associated with CC(C)(C)OC(=O)N1CCC(n2ncc3c(N4CC5CCC(C4)O5)nc(-c4ccc(NC(=O)NCCF)cc4)nc32)CC1 reads 5.40

----------
biological target: PI3K (Homo sapiens, UniProt P42336); construct: PI3 Kinase α IC50; other: PI3 Kinase α; other: PI3 Kinase α isoform, fluorescence polarization; test: Fluorescence polarization assay for PI3K; assay type: biochemical; conditions: PI3 Kinase α isoform, fluorescence polarization; read-out: PI3 Kinase α IC50
Sequence (P42336 whole entry, canonical isoform): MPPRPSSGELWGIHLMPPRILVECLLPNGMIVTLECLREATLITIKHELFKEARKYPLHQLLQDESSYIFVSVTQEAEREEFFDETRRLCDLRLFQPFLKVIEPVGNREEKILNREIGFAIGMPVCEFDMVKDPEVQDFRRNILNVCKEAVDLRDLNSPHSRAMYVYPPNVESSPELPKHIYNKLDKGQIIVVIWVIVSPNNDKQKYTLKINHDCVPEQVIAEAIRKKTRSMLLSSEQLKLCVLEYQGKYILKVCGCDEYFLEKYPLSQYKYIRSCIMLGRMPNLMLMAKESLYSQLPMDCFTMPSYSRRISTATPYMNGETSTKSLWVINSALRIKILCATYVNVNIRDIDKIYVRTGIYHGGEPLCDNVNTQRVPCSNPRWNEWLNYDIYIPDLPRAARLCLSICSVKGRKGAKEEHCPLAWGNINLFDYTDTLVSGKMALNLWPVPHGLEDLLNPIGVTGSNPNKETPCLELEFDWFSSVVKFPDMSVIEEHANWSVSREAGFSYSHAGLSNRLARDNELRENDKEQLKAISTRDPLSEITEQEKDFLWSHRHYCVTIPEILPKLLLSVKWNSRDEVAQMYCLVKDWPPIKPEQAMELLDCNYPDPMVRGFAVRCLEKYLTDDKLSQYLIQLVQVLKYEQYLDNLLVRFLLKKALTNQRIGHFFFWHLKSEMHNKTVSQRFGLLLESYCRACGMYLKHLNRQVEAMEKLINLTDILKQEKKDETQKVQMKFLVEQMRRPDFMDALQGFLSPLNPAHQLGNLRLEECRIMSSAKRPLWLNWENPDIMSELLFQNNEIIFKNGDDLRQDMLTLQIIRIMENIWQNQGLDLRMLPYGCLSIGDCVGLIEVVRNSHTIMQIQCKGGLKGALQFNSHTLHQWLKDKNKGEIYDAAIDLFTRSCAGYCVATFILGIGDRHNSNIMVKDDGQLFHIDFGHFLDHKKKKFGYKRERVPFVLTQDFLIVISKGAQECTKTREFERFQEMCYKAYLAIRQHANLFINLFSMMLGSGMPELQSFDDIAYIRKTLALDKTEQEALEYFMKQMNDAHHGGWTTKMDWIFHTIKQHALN
# IC50 per record follows
API: value field is a number in µM; no unit string.

CCn1nc(CN2CCCC2)c2c(N3CC4CCC(C3)O4)nc(-c3ccc(NC(=O)NC)cc3)nc21 [Example 354] = 2.39
CN1CCN(Cc2cc3nc(-c4ccc(NC(=O)Nc5ccc(C(N)=O)cc5)cc4)nc(N4CC5CCC(C4)O5)c3s2)CC1 [Example 428] = 0.034
COCC(COC)n1ncc2c(N3CC4CCC(C3)O4)nc(-c3ccc(NC(=O)Nc4ccncc4)cc3)nc21 [Example 325] = 0.601
COCC(COC)n1ncc2c(N3CC4CCC(C3)O4)nc(-c3ccc(NC(=O)Nc4ccccc4)cc3)nc21 [Example 324] = 0.382
COC(=O)Nc1ccc(-c2nc(N3CC4CCC(C3)O4)c3sccc3n2)cc1 [Example 416] = 6.2

Shifting focus to the molecule that follows.
IC50 recorded for this molecule, CN1CCN(C2CCC(n3ncc4c(N5CC6CCC(C5)O6)nc(-c5ccc(NC(=O)Nc6cccnc6)cc5)nc43)CC2)CC1 (stereo not drawn) [Example 330] , is 0.238

----------
Measured IC50 by item
Target: PI3K (Homo sapiens, UniProt P48736)
Construct: PI3 Kinase γ IC50; other: PI3 Kinase γ; other: PI3 Kinase γ isoform, fluorescence polarization
Sequence (P48736 whole entry, canonical isoform): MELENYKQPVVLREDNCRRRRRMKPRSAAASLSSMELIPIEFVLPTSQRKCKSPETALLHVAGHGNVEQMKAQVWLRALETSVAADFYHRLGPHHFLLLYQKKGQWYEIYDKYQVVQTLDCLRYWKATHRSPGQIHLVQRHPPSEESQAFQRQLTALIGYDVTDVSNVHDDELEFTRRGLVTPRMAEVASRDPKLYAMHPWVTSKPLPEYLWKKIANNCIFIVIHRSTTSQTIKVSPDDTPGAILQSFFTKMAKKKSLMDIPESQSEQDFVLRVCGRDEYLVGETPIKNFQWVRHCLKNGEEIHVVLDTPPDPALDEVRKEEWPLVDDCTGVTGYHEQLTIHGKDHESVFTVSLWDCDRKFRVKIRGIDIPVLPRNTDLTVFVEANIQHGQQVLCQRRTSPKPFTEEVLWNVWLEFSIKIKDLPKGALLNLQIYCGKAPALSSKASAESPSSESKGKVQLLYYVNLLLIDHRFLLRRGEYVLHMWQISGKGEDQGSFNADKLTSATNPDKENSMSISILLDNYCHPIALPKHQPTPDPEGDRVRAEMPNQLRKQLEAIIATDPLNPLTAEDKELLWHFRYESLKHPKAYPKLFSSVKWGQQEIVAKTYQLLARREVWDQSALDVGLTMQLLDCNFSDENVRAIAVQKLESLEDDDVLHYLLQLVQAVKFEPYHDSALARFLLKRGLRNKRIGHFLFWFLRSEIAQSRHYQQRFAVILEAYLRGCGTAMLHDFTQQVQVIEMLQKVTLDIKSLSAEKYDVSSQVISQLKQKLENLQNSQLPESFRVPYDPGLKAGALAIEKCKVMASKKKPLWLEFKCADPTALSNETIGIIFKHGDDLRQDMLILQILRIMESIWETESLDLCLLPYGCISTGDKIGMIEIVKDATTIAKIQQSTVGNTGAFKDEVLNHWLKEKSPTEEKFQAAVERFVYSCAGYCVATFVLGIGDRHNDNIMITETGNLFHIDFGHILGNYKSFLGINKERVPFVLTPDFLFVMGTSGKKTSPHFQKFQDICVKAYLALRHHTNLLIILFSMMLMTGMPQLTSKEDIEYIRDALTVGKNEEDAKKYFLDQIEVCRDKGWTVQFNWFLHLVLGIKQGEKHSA
Assay: Fluorescence polarization assay for PI3K
Type: biochemical
Conditions: PI3 Kinase γ; read-out: PI3 Kinase γ IC50
Description: This assay is used to determine the IC50 of compounds of the present invention as it identifies inhibitors of PI3 kinase by measuring inhibition. […] Stop/detector mix is prepared by mixing 4 μL Red detector and 1.6 μL or 2.0 μL GST-GRP with 1 mL Stop buffer, which results in 10 nM probe and 70 nM GST-GRP). […] The plates are read after 30-90 minutes keeping the red probe solutions dark. […] Plates are read on machines with filters for Tamra. […]
State just the number; it will be interpreted in µM.

Worked examples follow.
O=C(Nc1ccc(-c2nc(N3CC4CCC(C3)O4)c3cnn(CCO)c3n2)cc1)Nc1ccc(N2CCOCC2)cc1 [Example 204] = 11.3
O=C(Nc1ccccc1)Nc1ccc(-c2nc(N3CC4CCC(C3)O4)c3cnn(C4CCN(Cc5cccnc5)CC4)c3n2)cc1 [Example 17] = 1.86
CCn1ncc2c(N3CC4CCC(C3)O4)nc(-c3ccc(NC(=O)Nc4ccc(N5CCCC5)cc4)cc3)nc21 [Example 280] = 8.21

Would you kindly look at the next entry?
The reported IC50 of the compound O=C(Nc1ccc(-c2nc(N3CC4CCC(C3)O4)c3cn[nH]c3n2)cc1)Nc1cccnc1 [Example 91] was 2.64

----------
molecular target: PI3K (Homo sapiens, UniProt P48736); construct: PI3 Kinase γ IC50; other: PI3 Kinase γ; other: PI3 Kinase γ isoform, fluorescence polarization; experiment: Fluorescence polarization assay for PI3K; format: biochemical; conditions: PI3 Kinase γ; read-out: PI3 Kinase γ IC50
# maps each entry to its IC50
A number alone suffices; assume µM.

Here are 5 compounds together with their reported answers.
COC(=O)N1CCC(n2ncc3c(N4CC5CCC(C4)O5)nc(-c4ccc(NC(=O)OCCN)cc4)nc32)CC1 = 7.48
O=C(Nc1ccccc1)Nc1ccc(-c2nc(N3CC4CCC(C3)O4)c3cnn(C4CCNCC4)c3n2)cc1 = 2.31
CCOC(=O)Nc1ccc(-c2nc(N3CC4CCC(C3)O4)c3cnn(C4CCN(C(=O)OC)CC4)c3n2)cc1 = 12
N#CCCn1ncc2c(N3CC4CCC(C3)O4)nc(-c3ccc(NC(=O)Nc4cccnc4)cc3)nc21 = 3.32
CCNC(=O)Nc1ccc(-c2nc(N3CC4CCC(C3)O4)c3cnn(C4CCNCC4)c3n2)cc1 = 9

Looking up O=C(Nc1ccc(-c2nc(N3CC4CCC(C3)O4)c3cnn(C4CCN(Cc5ccccc5)CC4)c3n2)cc1)OCCO , I found its IC50 recorded as 8.84

Per the record, CC(C)n1ncc2c(N3CC4CCC(C3)O4)nc(-c3ccc(NC(=O)Nc4ccccc4)cc3)nc21 has IC50 of 0.475

Entry under test: CCn1ncc2c(N3CC4CCC(C3)O4)nc(-c3ccc(NC(=O)Nc4ccc(CO)cc4)cc3)nc21 . Its IC50 was 1.27

Item: CCn1ncc2c(N3CC4CCC(C3)O4)nc(-c3ccc(NC(=O)Nc4ccc(N5CCOCC5)cc4)cc3)nc21 | IC50: 3.67

Value of measured IC50 for the entry CC(C)n1ncc2c(N3CC4CCC(C3)O4)nc(-c3ccc(NC(=O)Nc4cccnc4)cc3)nc21 : 0.781
